# target desc: FPR1 (Homo sapiens, UniProt P21462)
# Sequence (P21462 whole entry): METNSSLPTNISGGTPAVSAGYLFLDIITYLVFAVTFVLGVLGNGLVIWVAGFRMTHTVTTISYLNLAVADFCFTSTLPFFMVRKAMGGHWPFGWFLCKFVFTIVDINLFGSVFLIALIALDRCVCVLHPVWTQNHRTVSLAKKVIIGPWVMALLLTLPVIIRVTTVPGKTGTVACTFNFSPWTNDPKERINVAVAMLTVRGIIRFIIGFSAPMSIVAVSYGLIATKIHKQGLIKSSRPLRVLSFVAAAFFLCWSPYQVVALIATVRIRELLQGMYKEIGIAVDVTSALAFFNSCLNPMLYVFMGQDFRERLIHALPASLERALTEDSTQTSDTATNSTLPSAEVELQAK
# measurement protocol: cell-based
# pEC50 per entry
Reminder that pEC50 means the negative base-10 logarithm of the concentration expressed in mol/L.

>>> measured_result("CSCC[C@H](NC(=O)[C@H](Cc1ccc(O)cc1)NC(=O)C[C@H](CCCCN)NC(=O)[C@@H](N)Cc1c[nH]c2ccccc12)C(=O)N[C@H](C(=O)N[C@H](CCSC)C(N)=O)C(C)C [WKβYMVm]")
6.58
>>> measured_result("CSCC[C@H](NC(=O)C[C@H](Cc1ccc(O)cc1)NC(=O)[C@H](CCCCN)NC(=O)[C@@H](N)Cc1c[nH]c2ccccc12)C(=O)N[C@H](C(=O)N[C@H](CCSC)C(N)=O)C(C)C [WKYβMVm]")
6.12
>>> measured_result("CSCC[C@H](NC(=O)C[C@H](Cc1ccc(O)cc1)NC(=O)C[C@H](CCCCN)NC(=O)[C@@H](N)Cc1c[nH]c2ccccc12)C(=O)N[C@H](C(=O)N[C@H](CCSC)C(N)=O)C(C)C [WKβYβMVm]")
5.61

Now look at this entry.
For CSCC[C@@H](CC(=O)N[C@H](C(=O)N[C@H](CCSC)C(N)=O)C(C)C)NC(=O)[C@H](Cc1ccc(O)cc1)NC(=O)[C@H](CCCCN)NC(=O)[C@@H](N)Cc1c[nH]c2ccccc12 [WKYMβVm] the compound record lists pEC50 as 6.37

###

# measurement protocol: Degradation half-life in human liver S9 fraction (HPLC)
# Assay type: in vitro ADME
# measurement conditions: human, s9
Numbered stars: 1 amine (or outer) side, 2 acyl side, 3 side chain; on linkers, the order of the positions; unused ones are H or OH. Square brackets hold non-standard residues; d marks the D form. Peptide text beside a SMILES is read from it. Gly(N-4-hydroxybenzyl) = O=C(O)CNCc1ccc(O)cc1; X1 = CSCCN(CC(=O)[*:2])[*:1]; Nlys = NCCCCNCC(=O)O
value type: Half-Life

For CSCC[C@@H](NC(=O)[C@@H](NC(=O)CN(CCSC)C(=O)[C@H](Cc1ccc(O)cc1)NC(=O)CN(CCCCN)C(=O)[C@@H](N)Cc1c[nH]c2ccccc12)C(C)C)C(N)=O [KM peptoid] (H-W[Nlys]Y[X1]V[dM]-NH2) the compound record lists Half-Life as > 24 h

For CSCC[C@H](NC(=O)CN(Cc1ccc(O)cc1)C(=O)CN(CCCCN)C(=O)[C@@H](N)Cc1c[nH]c2ccccc12)C(=O)N[C@H](C(=O)N[C@H](CCSC)C(N)=O)C(C)C [KY peptoid] (H-W[Nlys][Gly(N-4-hydroxybenzyl)]MV[dM]-NH2) the compound record lists Half-Life as > 24 h
